target: GHSR1a receptor (Homo sapiens, UniProt Q92847); construct: expressed in transfected cells; host or cells: HEK293 (membranes); assay: 125I-Ghrelin binding assay; conditions: displacement of 125I-ghrelin (0.053 nM), membranes of HEK293 cells transfected with GHSR1a; Cheng-Prussoff; '—' not defined; read-out: Binding pKi (converted)
Sequence (Q92847 whole entry): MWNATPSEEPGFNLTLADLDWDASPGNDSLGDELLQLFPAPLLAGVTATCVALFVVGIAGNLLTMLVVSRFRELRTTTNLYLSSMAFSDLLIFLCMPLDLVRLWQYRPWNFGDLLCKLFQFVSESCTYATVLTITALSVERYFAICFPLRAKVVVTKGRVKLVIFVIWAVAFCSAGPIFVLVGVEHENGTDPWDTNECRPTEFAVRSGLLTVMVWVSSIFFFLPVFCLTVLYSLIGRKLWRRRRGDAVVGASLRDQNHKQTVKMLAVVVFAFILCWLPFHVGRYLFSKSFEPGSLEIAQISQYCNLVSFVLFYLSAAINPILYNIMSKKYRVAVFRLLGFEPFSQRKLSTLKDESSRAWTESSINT
Each entry below carries its recorded log10 Ki.
Property Name: log10 Ki (log10 of the value in nM)

>>> endpoint_result("CCc1cccc2c(C(C)=O)cn(CCCN3C4CCC3CC(CC(=O)c3ccc(Cl)cc3)C4)c12 (centres unmarked)")
2.70
>>> endpoint_result("COc1cccc2c(C(=O)Cc3ccccc3)cn(CCCN3CCN(Oc4cccc(Cl)c4)CC3)c12")
1.20
>>> endpoint_result("CC(C)CC(=O)c1cn(CCCN2CCC(Oc3ccc(F)cc3)CC2)c2ccccc12")
3.00
>>> endpoint_result("COc1cccc2c(C(=O)NCC(C)C)cn(CCCN3CCC(Oc4ccccc4Cl)CC3)c12")
1.80
>>> endpoint_result("COc1cccc2c(C#N)cn(CCCN3C4CCC3CC(Oc3ccc(F)cc3)C4)c12 (centres unmarked)")
2.30
